# Test system: COG-LL-394h
# assay-name: selective drug sensitivity score (sDSS, relative to normal bone marrow) (sDSS (score)); higher = more potent and effective on the cell line relative to normal bone marrow cells;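 note: ALL cell lines in 384-well plates, five doses spanning 10,000-fold, each plate scaled between vehicle and 100 µmol/L benzalkonium chloride controls, sDSS an adapted area-under-curve metric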
# assay-conditions: 72 h
Recorded measurements of selective drug sensitivity score, one per entry

Observe how each entry below is paired with its result.
molecule	selective drug sensitivity score
Cc1ccc(F)c(NC(=O)Nc2ccc(-c3cccc4[nH]nc(N)c34)cc2)c1 [Linifanib] (top concentration 1000 nM)	-1.12
CC(C)(C)c1cnc(CSc2cnc(NC(=O)C3CCNCC3)s2)o1 [SNS-032] (top concentration 10000 nM)	-2.04
CC/C(=C(\c1ccccc1)c1ccc(OCCN(C)C)cc1)c1ccccc1 [Tamoxifen] (top concentration 10000 nM)	2.32
CS(=O)(=O)N1CCN(Cc2cc3nc(-c4cccc5[nH]ncc45)nc(N4CCOCC4)c3s2)CC1 [Pictilisib] (top concentration 10000 nM)	-0.74
Oc1nc(-c2ccc(C(F)(F)F)cc2)nc2c1CSCC2 [XAV939] (top concentration 10000 nM)	0.36

Qu. Consider the molecule COc1cccc(OCCCN)c1-c1cc(Nc2cnc(C#N)cn2)n[nH]1 [Prexasertib] (top concentration 10000 nM) and give its measured selective drug sensitivity score.
Ans. -0.96

Qu. Try this molecule too: Cn1nnc2c(C(N)=O)ncn2c1=O [Temozolomide] (top concentration 100000 nM)
Ans. -0.04

Qu. Try this molecule too: Cn1nccc1Nc1nccc(-c2ccn([C@H](CO)c3ccc(Cl)c(F)c3)c(=O)c2)n1 [Ravoxertinib] (top concentration 10000 nM)
Ans. -0.2

* * *

# Tested on: MHH-CALL-3
# assay-name: selective drug sensitivity score (sDSS, relative to normal bone marrow) (sDSS (score)); higher = more potent and effective on the cell line relative to normal bone marrow cells
# assay-conditions: 72 h
Threshold check on selective drug sensitivity score: at or above 1 gives satisfied, strictly below gives not satisfied.

# count of solved cases: 4
molecule	class
CC1CCC(n2c3cnccc3c3cnc(Nc4ccc5c(n4)CCN(C(=O)CO)C5)nc32)CC1 (stereo unspecified) [AMG-925] (top concentration 1000 nM)	satisfied
Cc1cc(C)c(CNC(=O)c2cc(-c3ccc(CN4CCOCC4)cc3)cc3c2cnn3C2CCCC2)c(=O)[nH]1 [EPZ-5687] (top concentration 10000 nM)	not satisfied
COC[C@H](NC(=O)c1cnc(C)s1)C(=O)N[C@@H](COC)C(=O)N[C@@H](Cc1ccccc1)C(=O)[C@@]1(C)CO1 [Oprozomib] (top concentration 2500 nM)	satisfied
O=c1[nH]c(C2CCCN2)nc2c1oc1ccc(Cl)cc12 (stereo unspecified) (top concentration 10000 nM)	not satisfied

Qu. hey, is selective drug sensitivity score for this one >= 1? C#Cc1cccc(Nc2ncnc3cc4c(cc23)OCCOCCOCCO4)c1 [Icotinib] (top concentration 10000 nM)
Ans. satisfied

Qu. Try this molecule too: C[C@]12CC[C@H](O)CC1=CC[C@@H]1[C@@H]2CC[C@]2(C)C(c3cccnc3)=CC[C@@H]12 [Abiraterone] (top concentration 5000 nM)
Ans. not satisfied

* * *

# Test system: COG-LL-355h
# assay-name: selective drug sensitivity score (sDSS, relative to normal bone marrow) (sDSS (score)); higher = more potent and effective on the cell line relative to normal bone marrow cells
# assay-conditions: 72 h
observation-type: selective drug sensitivity score
Please give only the number in your answer, with no unit.

molecule	test-target	selective drug sensitivity score
Cc1ccc(C(=O)Nc2ccc(Oc3cc4cnn(C)c4cc3-c3cn[nH]c3)c(F)c2)c(=O)n1-c1ccc(F)cc1 [Merestinib] (top concentration 1000 nM)	COG-LL-355h	-0.62
C=C1C[C@@H]2CC[C@@]34C[C@H]5O[C@H]6[C@@H](O3)[C@H]3O[C@H](CC[C@@H]3O[C@H]6[C@H]5O4)CC(=O)C[C@@H]3[C@@H](OC)[C@@H](C[C@H](O)CN)O[C@H]3C[C@H]3O[C@@H](CC[C@@H]1O2)C[C@@H](C)C3=C [Eribulin] (top concentration 1000 nM)	COG-LL-355h	4.4
O=C(Nc1cc(Oc2cc(F)c(NC(=O)C3(C(=O)Nc4ccc(F)cc4)CC3)cc2F)ccn1)C1CC1 [Altiratinib] (top concentration 10000 nM)	COG-LL-355h	-0.36
COc1cc2c(N3CCN(C(=O)Nc4ccc(OC(C)C)cc4)CC3)ncnc2cc1OCCCN1CCCCC1 [Tandutinib] (top concentration 1000 nM)	COG-LL-355h	0
COc1ccc(Cn2ccc3ccc(C(=O)NO)cc32)cc1 (top concentration 10000 nM)	COG-LL-355h	0.74
CCc1c2c(nc3ccc(O)cc13)-c1cc3c(c(=O)n1C2)COC(=O)[C@]3(O)CC [SN-38] (top concentration 10000 nM)	COG-LL-355h	14.7

Qu. Consider the molecule Cc1cc(OCc2nnc(SC3CCCC3)n2-c2cccnc2)ccc1-c1ccc(S(C)(=O)=O)cc1 [NMS-873] (top concentration 10000 nM) and give its measured selective drug sensitivity score.
Ans. 4.56

Qu. Try this molecule too: COc1cc(Br)c(Nc2nc(-c3c(C)nc4ncccn34)cs2)c(Br)c1 [PTC-209] (top concentration 10000 nM)
Ans. -0.38

Qu. Try this molecule too: NS(=O)(=O)OC[C@@H]1C[C@@H](n2ccc3c(N[C@H]4CCc5ccccc54)ncnc32)C[C@@H]1O [Pevonedistat] (top concentration 10000 nM)
Ans. 6

Qu. Try this molecule too: Cc1ccc(C(=O)Nc2cccc(C(F)(F)F)c2)cc1Nc1nc(-c2cccnc2)nc2c1cnn2C [NVP-BHG712] (top concentration 10000 nM)
Ans. 4.48

Qu. Try this molecule too: CNC(=O)c1ccc(-c2cnc3ncc(Cc4ccc5ncccc5c4)n3n2)cc1F [Capmatinib] (top concentration 1000 nM)
Ans. 0.04

Qu. Try this molecule too: CC[C@H](Nc1ncnc2[nH]cnc12)c1nc2cccc(F)c2c(=O)n1-c1ccccc1 [Idelalisib] (top concentration 10000 nM)
Ans. 3.14

Qu. Try this molecule too: CC(C)(C)c1cnc(CSc2cnc(NC(=O)C3CCNCC3)s2)o1 [SNS-032] (top concentration 10000 nM)
Ans. 0.16

Qu. Try this molecule too: Cc1nc(-c2cn3c(n2)-c2ccc(-c4cnn(C(C)(C)C(N)=O)c4)cc2OCC3)n(C(C)C)n1 [Taselisib] (top concentration 1000 nM)
Ans. 11.9

* * *

# Tested on: P30-OHKUBO
# assay-name: selective drug sensitivity score (sDSS, relative to normal bone marrow) (sDSS (score)); higher = more potent and effective on the cell line relative to normal bone marrow cells
# assay-conditions: 72 h
observation-type: selective drug sensitivity score
Please give only the number in your answer, with no unit.

Observe how each entry below is paired with its result.
compound	measured-value
CNC(=O)c1nn(C)c2c1C(C)(C)Cc1cnc(Nc3ccc(N4CCN(C)CC4)cc3)nc1-2 [Milciclib] (top concentration 10000 nM)	4.94
CC1(C)OCCn2c1nc1c(N3CCOCC3)nc(-c3cnc(N)nc3)nc12 [GDC-0084] (top concentration 10000 nM)	10.9
COc1ccc(S(=O)(=O)Nc2cccnc2Nc2ccc(O)cc2)cc1 [ABT-751] (top concentration 10000 nM)	11.6

Alright, here's another compound for you.
Qu. Provide value of selective drug sensitivity score for this record tested with P30-OHKUBO: COc1cccc(-c2ccc(NC(=O)C3=C(C(=O)O)CCC3)c(F)c2)c1 [Vidofludimus] (top concentration 10000 nM)
Ans. 3

* * *

# Test system: MHH-CALL-3
# assay-name: selective drug sensitivity score (sDSS, relative to normal bone marrow) (sDSS (score)); higher = more potent and effective on the cell line relative to normal bone marrow cells
# assay-conditions: 72 h
observation-type: selective drug sensitivity score
Please give only the number in your answer, with no unit.

compound	observation-type	measured-value
Cn1cc(C[C@@H](N)C(=O)O)c2ccccc21 [1-methyl-D-tryptophan] (top concentration 5000 nM)	selective drug sensitivity score	1.48
COc1cccc(OCCCN)c1-c1cc(Nc2cnc(C#N)cn2)n[nH]1 [Prexasertib] (top concentration 10000 nM)	selective drug sensitivity score	13.4
O=C(Nc1ccncc1)C(=O)c1cn(Cc2ccc(Cl)cc2)c2ccccc12 [Indibulin] (top concentration 10000 nM)	selective drug sensitivity score	1.64
CCN(CC)C(=S)SSC(=S)N(CC)CC [Disulfiram(+CuCl2)] (top concentration 50000 nM)	selective drug sensitivity score	1.78

Qu. Consider the compound O=C(CCCCCCC(=O)Nc1ccc([C@H]2O[C@@H](CSc3nc(-c4ccccc4)c(-c4ccccc4)o3)C[C@@H](c3ccc(CO)cc3)O2)cc1)NO [Tubacin] (top concentration 10000 nM) and give its measured selective drug sensitivity score.
Ans. 17.8

Qu. Try this compound too: CNc1nc(-c2ccc3c(N)n[nH]c3c2)cc(N2C[C@@H](C(=O)NC3CCCCC3)CC[C@H]2C)n1 (top concentration 10000 nM)
Ans. -0.14
